Test: DRUGMATRIX: GABAA, Flunitrazepam, Central radioligand binding (ligand: [3H] Flunitrazepam)
Format: cell membranes, Rattus norvegicus, Wistar, Brain, Membrane
Conditions: Not Active = under 50% inhibition at 10 µM
Measurement Label: Ki

Compound	Assay Result
O=C1c2c(O)ccc(O)c2C(=O)c2c(NCCNCCO)ccc(NCCNCCO)c21	Not Active
CC(=O)CCCCn1c(=O)c2c(ncn2C)n(C)c1=O	Not Active
C=C1[C@@H]2CCC3[C@@](CC[C@@H]4[C@H](C(=O)O)C[C@@H](O[C@@H]5O[C@H](CO)[C@@H](OS(=O)(=O)[O-])[C@H](OS(=O)(=O)[O-])[C@H]5OC(=O)CC(C)C)C[C@@]34C)(C2)[C@@H]1O.[K+].[K+] (stereo partly drawn) [ATRACTYLOSIDE]	Not Active
